molecular target: Corticotropin-releasing factor receptor 2/Corticotropin-releasing factor-binding protein (Homo sapiens, UniProt P24387+Q13324); assay: activators of CRF receptor 2 with binding protein – uHTS hits, confirmation (AID 602473); type: functional; conditions: read-out: EC50_Mean
Sequence (Q13324 whole entry): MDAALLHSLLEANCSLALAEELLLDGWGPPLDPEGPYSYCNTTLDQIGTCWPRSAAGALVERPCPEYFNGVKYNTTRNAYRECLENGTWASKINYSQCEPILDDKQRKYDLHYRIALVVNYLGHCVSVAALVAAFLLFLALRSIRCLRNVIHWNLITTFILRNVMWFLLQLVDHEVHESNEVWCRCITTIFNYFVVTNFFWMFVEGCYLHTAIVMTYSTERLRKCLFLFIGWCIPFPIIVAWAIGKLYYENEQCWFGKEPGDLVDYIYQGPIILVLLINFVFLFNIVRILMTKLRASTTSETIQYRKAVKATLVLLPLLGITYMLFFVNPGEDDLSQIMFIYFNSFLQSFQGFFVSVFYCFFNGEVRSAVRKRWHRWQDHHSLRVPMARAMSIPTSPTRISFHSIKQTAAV
Sequence (P24387 whole entry): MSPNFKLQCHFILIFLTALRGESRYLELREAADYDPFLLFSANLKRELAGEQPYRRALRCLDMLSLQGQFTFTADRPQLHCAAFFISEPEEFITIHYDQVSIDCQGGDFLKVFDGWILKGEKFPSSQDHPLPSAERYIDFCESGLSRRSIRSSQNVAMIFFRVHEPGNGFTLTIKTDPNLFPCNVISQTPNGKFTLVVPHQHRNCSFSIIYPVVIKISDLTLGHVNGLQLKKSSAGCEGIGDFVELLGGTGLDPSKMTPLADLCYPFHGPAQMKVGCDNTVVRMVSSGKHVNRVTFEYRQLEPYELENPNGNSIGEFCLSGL
Calls of active or inactive are those of the source.
Form entry, call: pick from active, inactive

Answered examples (3):
- Compound: "CCC(=O)Nc1cccc(-n2nnnc2SCC(=O)N2CCCCC2)c1"
  Qualitative label: "active"
- Compound: "Cc1ccc(OCCOC(=O)Cn2nc(C)c([N+](=O)[O-])c2C)cc1"
  Qualitative label: "inactive"
- Compound: "COC(=O)CN1C(c2ccc(Cl)cc2)=Nc2ccc(Cl)cc2C1c1ccccc1 (centres undefined)"
  Qualitative label: "inactive"

Write down the call the test reported for this compound. Item: O=C(NC(=S)NCCc1ccccn1)c1ccco1 inactive

Write down the call the test reported for this compound. Item: O=C(Nc1ccc(Oc2ccccc2)cc1)C1CCCN(c2ncccn2)C1 (centres undefined) inactive

Write down the call the test reported for this compound. Item: CCC1CCCCN1CC(=O)c1c(C)[nH]c2ccccc12 (centres undefined) active

Write down the call the test reported for this compound. Item: N#C/C(=C(/O)Cc1cccc2ccccc12)c1nc2ccccc2s1 active

Write down the call the test reported for this compound. Item: Cc1nc(N)sc1-c1csc(N(C)c2ccc(O)cc2)n1 inactive

Write down the call the test reported for this compound. Item: Cc1[nH]n(-c2cccc(Cl)c2)c(=O)c1-c1ccc(Cl)cc1 inactive

====

molecular target: Cytochrome P450 2C9 (Homo sapiens, UniProt P11712)
Sequence (P11712 whole entry): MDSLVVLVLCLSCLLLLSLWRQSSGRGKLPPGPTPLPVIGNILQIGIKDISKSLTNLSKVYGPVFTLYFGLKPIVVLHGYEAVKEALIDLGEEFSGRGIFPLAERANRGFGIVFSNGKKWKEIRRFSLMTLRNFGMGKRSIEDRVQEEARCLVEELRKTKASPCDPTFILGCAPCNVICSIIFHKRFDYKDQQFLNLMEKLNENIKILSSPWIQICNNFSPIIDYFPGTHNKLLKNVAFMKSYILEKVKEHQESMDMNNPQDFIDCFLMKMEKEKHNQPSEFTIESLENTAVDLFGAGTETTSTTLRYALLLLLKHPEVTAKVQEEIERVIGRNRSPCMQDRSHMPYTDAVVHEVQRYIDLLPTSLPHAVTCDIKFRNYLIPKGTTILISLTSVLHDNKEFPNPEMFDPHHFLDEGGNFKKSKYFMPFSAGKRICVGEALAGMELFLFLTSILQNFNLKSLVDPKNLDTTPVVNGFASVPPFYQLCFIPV
Measured quantity: AC50

- Compound: "Cc1cccc(C(=N)NOC(=O)CCCN2C(=O)c3ccccc3C2=O)c1"
  Tested system: "Cytochrome P450 2C9 (Homo sapiens, UniProt P11712)"
  AC50: "3.98 µM (inconclusive)"

Provide reported AC50 for each item, in the same order as listed.
1. COc1ccc(N2CCN(C(=O)CSc3nnc4c5cc(C)ccc5n(C)c4n3)CC2)cc1
2. CCCn1nnc(NC(=O)Cc2ccccc2)n1
3. Cn1cccc1C(=O)N1CCC2(CC1)CCN(c1ccccn1)CC2
4. COCC(=O)Nc1ccc(-c2cn3cccnc3n2)cc1
5. OC(COCC1COc2ccccc2O1)CN1CCN(c2ccccc2F)CC1 (centres undefined)

1: 2.51 µM (inconclusive); 2: 0.00562 µM (inconclusive); 3: 31.6 µM (inconclusive); 4: 6.31 µM (inconclusive); 5: 20 µM (inconclusive)

====

target: Oxysterols receptor LXR-beta (Homo sapiens); assay type: functional, cell-based;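 further: HEK293 cells with Gal4-LXR fusion and GAL4-driven luciferase reporter; potency for activation of Gal4-LXR reporter so compounds are agonists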;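 further: agonist activity at LXR measured by a cell-based luminescence readout across a dose range, run as a counterscreen for daf-12 agonists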
Sequence (P55055 whole entry, the tested form may be a part): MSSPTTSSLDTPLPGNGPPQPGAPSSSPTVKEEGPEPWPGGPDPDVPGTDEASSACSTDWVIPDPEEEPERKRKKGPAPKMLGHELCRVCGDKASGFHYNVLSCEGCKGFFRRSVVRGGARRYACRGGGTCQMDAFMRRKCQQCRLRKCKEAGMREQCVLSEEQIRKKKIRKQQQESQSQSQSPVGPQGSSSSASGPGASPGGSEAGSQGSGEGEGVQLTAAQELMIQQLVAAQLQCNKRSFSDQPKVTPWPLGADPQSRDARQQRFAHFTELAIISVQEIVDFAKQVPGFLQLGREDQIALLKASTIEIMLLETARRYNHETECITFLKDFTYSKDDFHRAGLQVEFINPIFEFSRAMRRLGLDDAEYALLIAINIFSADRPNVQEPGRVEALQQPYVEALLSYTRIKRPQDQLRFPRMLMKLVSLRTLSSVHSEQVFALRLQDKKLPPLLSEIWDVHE
Activity calls are given as the source filed them.
Measured quantity: EC50

- Substance smiles: "O=C(Nc1ncccc1O)c1cc2ccccc2o1"
  EC50: "> 67.6 µM (inactive)"
- Substance smiles: "N=C1c2ccccc2CN1CC(=O)c1ccccc1"
  EC50: "> 67.6 µM (inactive)"
- Substance smiles: "C/C(=N\\c1ccccc1)c1sc2ccccc2c1O"
  EC50: "> 67.6 µM (inactive)"

From here, focus on the item given below.
The molecule identified as COCCNC(=O)/C(C#N)=C/c1cc(C)n(C2CCCCC2)c1C registered its EC50 at > 67.5 µM (inactive)

====

target: Prothrombin (Bos taurus); test: thrombin protease inhibitors – biochemical, fluorescence polarization, uHTS hits, dose response (AID 602369); type: functional
Activity calls are given as the source filed them.
Measured quantity: IC50

- Compound: "Cc1c(C(=O)N/N=C/c2ccc(O)c(Br)c2)sc(N)c1C#N"
  IC50: "48.9 µM (active)"
- Compound: "C(=N\\NC1=Nc2cccc3cccc1c23)/c1cccnc1"
  IC50: "14 µM (active)"
- Compound: "Cc1ccc(C2CC(c3cccs3)=NN2S(=O)(=O)c2ccc(C)cc2)cc1 (stereo unspecified)"
  IC50: "55.9 µM (active)"

Provide reported IC50 for each item, in the same order as listed.
1. COc1ccc(O)c(/C=N/NC(=O)c2ccc(OCc3cccc(Br)c3)cc2)c1
2. CCOc1cc(/C=C2\C(=N)N3N=C(CC(=O)N4CCCCC4)SC3=NC2=O)ccc1O
3. CCn1c(C)cc(/C=C2/SC(=S)N(CC(=O)O)C2=O)c1C

68.3 µM (active)
33.4 µM (active)
32.9 µM (active)

====

experiment: Luminescence Cell-Based Dose Response HTS to Identify Activators of Luciferase Translation or Activity in H4 […] Cells. [Related pubchem assays: 1829 (Project Summary), 1814 (Primary HTS)]; assay type: functional
Calls of active or inactive are those of the source.
Measured quantity: EC50

These solved cases illustrate the format of a correct answer.
- Substance smiles: "O=C(NC(=S)N1CCCCC1)c1csc([N+](=O)[O-])c1"
  EC50: "> 120 µM (not active)"
- Substance smiles: "O=C(O)c1ccc(Cn2nnc3sc4c(c3c2=O)CCCC4)cc1"
  EC50: "13.2 µM (active)"
- Substance smiles: "Cc1cccc(NCc2nc3ccccc3n2C)c1"
  EC50: "> 120 µM (not active)"

Provide reported EC50 for each item, in the same order as listed.
1. Cc1nc2c(sc3nc4c(cc32)COC(C)(C)C4)c(=O)n1Cc1ccccc1
2. N=C1c2ccccc2CN1CC(=O)c1ccccc1
3. Cc1ccc(N=NC2=C(O)OC(C)(C)OC2=O)c(C)c1

7.48 µM (active)
10.6 µM (active)
14.7 µM (active)

====

molecular target: SUMO-activating enzyme (Homo sapiens); experiment: blockers of SAE1/SAE2–UBC9 SUMO transfer – biochemical, HTRF, uHTS, primary screen (AID 2006); assay type: protein-complex assay
Sequence (Q9UBE0 whole entry): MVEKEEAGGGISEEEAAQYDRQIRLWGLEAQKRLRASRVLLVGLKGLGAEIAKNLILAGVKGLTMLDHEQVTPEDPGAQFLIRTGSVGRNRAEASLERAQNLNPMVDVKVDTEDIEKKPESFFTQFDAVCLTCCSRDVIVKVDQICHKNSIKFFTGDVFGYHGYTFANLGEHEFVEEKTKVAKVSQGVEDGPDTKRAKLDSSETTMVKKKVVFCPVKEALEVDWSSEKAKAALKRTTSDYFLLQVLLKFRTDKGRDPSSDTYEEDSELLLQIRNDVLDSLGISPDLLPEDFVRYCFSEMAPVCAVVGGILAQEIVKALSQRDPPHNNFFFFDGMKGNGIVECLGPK
Sequence (Q9UBT2 whole entry): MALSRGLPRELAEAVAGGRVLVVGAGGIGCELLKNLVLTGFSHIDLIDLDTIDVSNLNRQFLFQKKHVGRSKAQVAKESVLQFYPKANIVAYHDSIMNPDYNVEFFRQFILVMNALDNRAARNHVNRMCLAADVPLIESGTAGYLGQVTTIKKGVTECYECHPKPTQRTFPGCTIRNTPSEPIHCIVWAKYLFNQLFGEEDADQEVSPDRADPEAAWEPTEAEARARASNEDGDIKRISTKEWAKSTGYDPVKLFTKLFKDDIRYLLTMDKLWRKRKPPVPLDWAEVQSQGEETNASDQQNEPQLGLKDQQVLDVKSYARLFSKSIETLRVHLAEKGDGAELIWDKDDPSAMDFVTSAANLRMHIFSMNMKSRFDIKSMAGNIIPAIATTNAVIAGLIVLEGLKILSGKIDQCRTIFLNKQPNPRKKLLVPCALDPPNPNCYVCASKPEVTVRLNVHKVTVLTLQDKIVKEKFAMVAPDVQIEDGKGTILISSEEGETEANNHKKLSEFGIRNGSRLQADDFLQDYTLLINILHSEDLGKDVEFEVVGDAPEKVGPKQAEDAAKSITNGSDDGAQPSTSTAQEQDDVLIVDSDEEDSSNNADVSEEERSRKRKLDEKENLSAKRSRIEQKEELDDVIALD
The source made the active and inactive calls.
Measured quantity: IC50

These solved cases illustrate the format of a correct answer.
- Compound: "COc1ccccc1CNC(=O)COC(=O)c1cc(-c2ccco2)nc2ccccc12"
  IC50: "10.6 µM (active)"
- Compound: "CCOC(=O)c1c(CSc2ccccc2)n(C)c2cc(Br)c(OCC(O)CNC(CO)(CO)CO)cc12 (stereo not given)"
  IC50: "17.9 µM (active)"
- Compound: "COc1ccccc1C(=O)Nc1ccc(-c2nnn(CC(=O)NCc3ccco3)n2)cc1"
  IC50: "11.8 µM (active)"
- Compound: "CC1=C(C#N)C(=O)NC(=O)/C1=C\\c1ccc(-c2cc(C)c(C)cc2[N+](=O)[O-])o1"
  IC50: "39.7 µM (active)"

From here, focus on the item given below.
The compound identified as O=C1C=C(Nc2ccccc2)c2ccccc2C1=O registered its IC50 at 20.7 µM (active)

====

Assign EC50 to each entry below.
test: fluconazole-exposed Candida albicans growth modulators – fluorescence, retest, confirmation (AID 2467); assay type: functional, cell-based
The source made the active and inactive calls.

These solved cases illustrate the format of a correct answer.
- Substance smiles: "CCCCn1c(SCC(=O)c2ccc(O)c(O)c2)nc2ccsc2c1=O"
  Measured quantity: "EC50"
  Value reported: "> 38 µM (not active)"
- Substance smiles: "O=C(COc1ccccc1)Nc1cccc(-c2nc3cc4ccccc4cc3[nH]2)c1"
  Measured quantity: "EC50"
  Value reported: "1.64 µM (active)"
- Substance smiles: "O=c1c2cc(Br)ccc2nc(-c2cccc(C(F)(F)F)c2)n1O"
  Measured quantity: "EC50"
  Value reported: "0.451 µM (active)"
- Substance smiles: "Cc1ccc(-c2cc(-c3ccc(C)cc3)[n+](C)o2)cc1.[O-][Cl+3]([O-])([O-])[O-]"
  Measured quantity: "EC50"
  Value reported: "> 38 µM (not active)"
- Substance smiles: "Cc1ccc(-n2nnnc2C(Cl)(Cl)c2nnnn2-c2ccc(C)cc2)cc1"
  Measured quantity: "EC50"
  Value reported: "> 38 µM (not active)"
- Substance smiles: "CCN(CC)c1ccc(/C=N/Nc2nc3ccccc3[nH]2)cc1"
  Measured quantity: "EC50"
  Value reported: "> 38 µM (not active)"

The compound identified as [O-]c1ccccc1-[n+]1c(-c2ccccc2)cc(-c2ccccc2)cc1-c1ccccc1 registered its EC50 at 0.85 µM (active)

====

Assign AC50 to each entry below.
target: FAD-linked sulfhydryl oxidase ALR (Homo sapiens); assay: ALR-catalysed DTT oxidation blockers – biochemical, H2O2 detection, luminescence, cherry-pick, dose response (AID 493248)
Sequence (P55789 whole entry): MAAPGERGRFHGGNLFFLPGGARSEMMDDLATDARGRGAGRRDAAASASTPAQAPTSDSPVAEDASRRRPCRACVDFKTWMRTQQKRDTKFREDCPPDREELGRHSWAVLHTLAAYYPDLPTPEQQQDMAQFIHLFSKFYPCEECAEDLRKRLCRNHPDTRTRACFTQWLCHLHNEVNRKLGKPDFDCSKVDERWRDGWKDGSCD
Active and inactive are the calls of the source.

These solved cases illustrate the format of a correct answer.
- Compound: "O=C(NCC(c1cccnc1)N1CCN(c2ccccc2)CC1)OCc1ccccc1 (stereo unspecified)"
  Value reported: "6.15 µM (active)"
- Compound: "CN(C)c1ccc(CNC(=O)c2cc(S(=O)(=O)N3CCCC3)cn2C)cc1"
  Value reported: "8.78 µM (active)"
- Compound: "O=[N+]([O-])c1c(O)nc(/C=C\\c2ccc(O)cc2)nc1O"
  Value reported: "4.4 µM (active)"
- Compound: "CCn1c(C)cc(/C=C2/SC(=S)N(CC(=O)O)C2=O)c1C"
  Value reported: "0.776 µM (active)"
- Compound: "c1csc(-c2nc3ccccn3c2NC2CCCCC2)c1"
  Value reported: "0.678 µM (active)"
- Compound: "Cc1ccc(C(=O)Nc2nc(-c3ccc([N+](=O)[O-])cc3)cs2)o1"
  Value reported: "0.675 µM (active)"
- Compound: "CCS(=O)(=O)N1Cc2ccccc2CC1C(=O)N1CCN(c2ccccc2)CC1 (stereo unspecified)"
  Value reported: "12.1 µM (active)"
- Compound: "O=C(O)c1ccc(N2C(=O)/C(=C/c3nc4ccccc4[nH]3)SC2=S)cc1"
  Value reported: "0.009 µM (active)"

Provide reported AC50 for each item, in the same order as listed.
1. COC(=O)c1sc2nc(-c3ccco3)ccc2c1N
2. CC(=O)N1CCN=C1SCc1ccccc1F
3. COc1ccc(OC)c(C(=O)N2CCCC(Nc3ccc(F)cc3)C2)c1 (stereo unspecified)

1. 2.84 µM (active)
2. 13.9 µM (active)
3. 1.92 µM (active)
